- target-system: Taq DNA polymerase (rTaq) (Thermus aquaticus)
- protocol-notes: FP_none
reported-endpoint: pKd
Please report pKd as the negative decimal logarithm of the molar concentration, giving only the number.

So what's the measured pKd for this one? TTCTCGGTTGGTCTCTGGCGGAGCNNNNNNNNNNNNNNNNNNNNNNNNNNNNNNTCTTGTGTATGATTCGCTTTTCCC [Taq-enriched ssDNA pool (round 12)] 8.46

----------
- target-system: Taq DNA polymerase (rTaq) (Thermus aquaticus) (UniProt P19821)
- Sequence (P19821 whole entry): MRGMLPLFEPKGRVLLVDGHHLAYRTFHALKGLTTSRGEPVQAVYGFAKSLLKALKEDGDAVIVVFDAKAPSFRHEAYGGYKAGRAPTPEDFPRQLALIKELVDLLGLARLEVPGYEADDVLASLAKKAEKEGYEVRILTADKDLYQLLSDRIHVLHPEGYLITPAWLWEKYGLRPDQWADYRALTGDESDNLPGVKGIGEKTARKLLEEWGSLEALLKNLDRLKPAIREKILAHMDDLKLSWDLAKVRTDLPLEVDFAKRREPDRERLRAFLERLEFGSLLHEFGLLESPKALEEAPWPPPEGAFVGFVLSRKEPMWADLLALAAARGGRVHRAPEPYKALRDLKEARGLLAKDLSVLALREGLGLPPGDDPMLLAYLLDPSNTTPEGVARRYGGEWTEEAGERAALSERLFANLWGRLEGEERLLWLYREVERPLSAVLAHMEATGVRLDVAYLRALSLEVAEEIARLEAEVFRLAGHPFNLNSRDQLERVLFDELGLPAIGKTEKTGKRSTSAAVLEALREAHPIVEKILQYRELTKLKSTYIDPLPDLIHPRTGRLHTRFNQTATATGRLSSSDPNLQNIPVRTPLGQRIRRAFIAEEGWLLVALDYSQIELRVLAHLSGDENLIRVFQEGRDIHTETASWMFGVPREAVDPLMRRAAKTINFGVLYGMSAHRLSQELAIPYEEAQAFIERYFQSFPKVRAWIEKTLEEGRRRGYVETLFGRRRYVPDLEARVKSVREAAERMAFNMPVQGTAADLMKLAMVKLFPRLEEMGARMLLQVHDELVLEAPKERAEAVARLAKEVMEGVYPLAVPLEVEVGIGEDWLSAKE
- protocol-notes: filter
- condition-label: cross binding of Tth-selected pool; saturates at about 50%, about half of pool not interacting; room temperature
reported-endpoint: pKd
Please report pKd as the negative decimal logarithm of the molar concentration, giving only the number.

Param readout = pKd; param system = Taq DNA polymerase (rTaq) (Thermus aquaticus) (UniProt P19821); param query = TTCTCGGTTGGTCTCTGGCGGAGCNNNNNNNNNNNNNNNNNNNNNNNNNNNNNNTCTTGTGTATGATTCGCTTTTCCC [Tth-enriched ssDNA pool (round 10)] ; response: value 9.52
